molecular target: human PF4 (Homo sapiens); construct: PF4 is a 70 amino acid, lysine-rich 7.8 kDa platelet-specific protein; made in house; host or cells: Escherichia coli BL21DE3 pLysS (pT7-7) and/or Drosophila S2 cells; assay: Inhibition of PF4 tetramer formation (BS3 cross-linking, SDS-PAGE); assay type: biochemical; details: read-out: IC50 of PF4 tetramer formation inhibition
Sequence (P02776 32-101): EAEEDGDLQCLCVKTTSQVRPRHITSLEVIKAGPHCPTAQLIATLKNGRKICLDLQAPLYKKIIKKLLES
Can you tell me IC50 for the items I'm about to list?
A number alone suffices; assume nM.

Would you mind telling me what IC50 value was observed for CC(C)(C)OC(=O)N1CC2(CC(C(=O)C3C(=O)c4ccc(-c5ccc6c(c5)C(=O)C(C(=O)C5CC7(C5)CN(C(=O)OC(C)(C)C)C7)C6=O)cc4C3=O)C2)C1 (stereo not drawn) ?
3300

Quick one: IC50 of O=C1c2ccc(S(=O)(=O)c3ccc4c(c3)C(=O)C(C(=O)[C@@H]3C[C@H]3C(=O)O)C4=O)cc2C(=O)C1C(=O)[C@@H]1C[C@H]1C(=O)O (stereo in doubt) ?
1400

# input molecule: CC(C)(C)OC(=O)N1CCC[C@H]1CC(=O)C1C(=O)c2ccc(C(=O)c3ccc4c(c3)C(=O)C(C(=O)C[C@@H]3CCCN3C(=O)OC(C)(C)C)C4=O)cc2C1=O (stereo in doubt) ; wanted: its IC50
1200

These data points were gathered from patent US20250281424A1.
